# Tested on: HL-60(TB) leukemia
# assay.name: NCI tumour cell line growth inhibition, 48 h
Give measured TGI for each item. Keep answers brief.

compound	endpoint.label	result
COc1ccc2c(c1)CC1Cc3cc(OC)c(OC)cc3CN1CC2 (centres undefined)	TGI	34.3 µM
C=C(Br)CN(C)CC(=C)Br	TGI	> 100 µM
COC(=O)/C=C\n1ncc(=O)[nH]c1=O	TGI	> 100 µM

For the 6 compounds below, give their TGI values.
1. C=C(C)[C@@H]1CC[C@]2(COC(C)=O)CC[C@]3(C)[C@H](CC[C@@H]4[C@@]5(C)CC[C@H](OC(C)=O)C(C)(C)[C@@H]5CC[C@]43C)[C@@H]12
2. COc1ccc(C(OCC2OC(n3cnc4c(=O)n(Cc5ccccc5[N+](=O)[O-])nnc43)C(O)C2O)(c2ccccc2)c2ccc(OC)cc2)cc1 (centres undefined)
3. COC(=O)C1=C(C)N2CCOC2(C)C(C(=O)OC)C1c1ccc[nH]1 (centres undefined)
4. CC1CC2=C(C(=O)O1)C(c1ccccc1)Nc1ccccc1N2 (centres undefined)
5. CN(C)C=C1C(=O)N(C)C(=O)N(C)C1=O
6. CC1(C)CCC(S(=O)(=O)c2ccc3c(c2)/C(=N\O)c2cc(S(=O)(=O)N4CCN(c5ccc(F)cc5O)CC4)ccc2-3)CC1

Response:
1: > 50 µM; 2: 5.85 µM; 3: > 100 µM; 4: > 100 µM; 5: > 100 µM; 6: 0.288 µM

---

# Test system: BT-549 breast
# assay.name: NCI tumour cell line growth inhibition, 48 h
Give measured log10(TGI) for each item. Keep answers brief.
Values below are the log10 of the recorded TGI, with µM as the unit.

Examples from the recorded data:
molecule	log10(TGI)
O=C1C=CC(=O)c2c1c1c(c3c2C2c4ccccc4C3c3ccccc32)C2c3ccccc3C1c1ccccc12	1.14
C=C(C)[C@@H]1CC[C@]2(CNCCO)CC[C@]3(C)[C@H](CC[C@@H]4[C@@]5(C)CCC(N)[C@@](C)(CO)[C@@H]5CC[C@]43C)[C@@H]12 (some centres undefined)	0.52
COc1cc(OC)cc(Oc2nc3cc(N)cc(N)c3nc2-c2ccccc2)c1	0.84
COC(=O)c1c2c(c[n+]([O-])c1C)C(=O)C=C(NCc1ccccc1)C2=O	-0.50

Query: State log10(TGI) (BT-549 breast) of CCCCCCCCCCCCC[N+](C)(C)Cc1ccccc1 .
Response: 0.38

---

# Test system: SK-MEL-28 melanoma
# assay.name: NCI tumour cell line growth inhibition, 48 h
endpoint.label: GI50

compound	GI50
Nc1ccc2c(c1)Cc1cc(Cl)c(Cl)cc1-2	> 100 µM
O=C1NC(=NCCc2cccs2)S/C1=C\c1ccc2ncccc2c1	24.4 µM
CC(C)(C)c1[nH]nc2c1C(c1cc3ccccc3[nH]c1=O)Nc1cc(C(=O)Nc3ccc(Cl)cc3)ccc1N2 (centres undefined)	3.76 µM

Now take the following compound into account.
Query: State GI50 (SK-MEL-28 melanoma) of O=C([O-])c1ccc2c(c1)-c1nc-2nc2[n-]c(nc3nc(nc4[n-]c(n1)c1ccc(C(=O)[O-])cc41)-c1ccc(C(=O)[O-])cc1-3)c1ccc(C(=O)[O-])cc21.[Gd+3].[K+] .
Response: > 100 µM

---

# Test system: HCT-15 colon
# assay.name: NCI tumour cell line growth inhibition, 48 h
Give measured TGI for each item. Keep answers brief.

Examples from the recorded data:
molecule	result
CC(NC(=O)C(CC(=O)OCc1ccccc1)NC(=O)OCc1ccccc1)c1ccccc1 (stereo not drawn)	> 100 µM
C=C(C)/C=C/C(O)[C@](C)(O)[C@H]1[C@H](O)C[C@@]2(C)[C@@H]3CCc4c(cc(OC5OC(CO)C(O)C(O)C5O)c(O)c4C)C3(C)C(=O)C[C@]12C (stereo partly drawn)	> 100 µM
CCOC(=O)C=C1CCC2(CC1)OCCO2	> 100 µM
CC(C)(C)c1ccc(O)c(C[N+](C)(C)C)c1	> 100 µM
C/C(=N\N(C)C)C(CN1CCCCC1)C(c1ccccc1)c1c(O)c2ccccc2oc1=O (stereo not drawn)	> 100 µM

For the 8 molecules below, give their TGI values.
1. C[C@]12CCc3nonc3C1CC[C@@H]1C2CC[C@]2(C)C(=O)CCC12 (stereo partly drawn)
2. COc1nc(-c2cn(S(=O)(=O)c3ccc(C)cc3)c3ccc(Br)cc23)cc(C(F)(F)F)c1C#N
3. CN(C)c1ccc2nc3ccc(=N)cc-3sc2c1
4. COc1ccc2c(CCC(c3ccccc3)c3ccccc3)c3[n+](cc2c1OC)CCc1cc2c(cc1-3)OCO2
5. Cc1cc2c(cc1C)N1C(Cl)=C3CCCCC3=C(C#N)C1N2 (stereo not drawn)
6. C[N+]1(C)C/C(=C/c2ccc(F)cc2)C(=O)/C(=C\c2ccc(F)cc2)C1
7. Cc1ccnc(NS(=O)(=O)c2ccc(NC3=CC(=O)C(=O)c4ccccc43)cc2)n1
8. CCOC(=O)c1cc(C(=O)c2ccc(Cl)cc2)n2ccc(-c3cc[n+](CC(=O)c4ccc(OC)cc4)cc3)cc12

Response:
1. > 100 µM
2. > 100 µM
3. 24.4 µM
4. 7.43 µM
5. 7.76 µM
6. > 100 µM
7. > 100 µM
8. 3.6 µM

---

# Tested on: HCT-116 colon
# assay.name: NCI tumour cell line growth inhibition, 48 h
endpoint.label: TGI (µM)
One number for each entry, in µM.

Examples from the recorded data:
molecule	number
COC1(OC)C[C@H](C)[C@@]23O[C@]24C2=CC(=O)C=CC2=N[C@H]3C#C/C=C\C#C[C@]14O	1.35
O=C1C=CC(=O)c2c(O)c(CO)c(CO)c(O)c21	0.662
O=c1nc2sc3ccc4ccccc4c3n2nc1-c1ccccc1	51.2
O=C1c2cccc3cc4ccccc4c(c23)C(=O)N1CCNCCNCCNCCN1C(=O)c2cccc3cc4ccccc4c(c23)C1=O	1.11
COc1ccc(Nc2nc3cc(C(F)(F)F)ccc3nc2C(=O)O)cc1OC	95.7

For the 7 molecules below, give their TGI values.
1. CC(=O)Oc1ccc2c(c1OC(C)=O)CCC1C2=CC[C@]2(C)C(=O)CCC12 (stereo partly specified)
2. CCOC(=O)c1ccc2c(c1)c1c(C)c3ccncc3c(C)c1n2C
3. CCC[CH2][Sn]([CH2]CCC)([O]C(=O)Cc1ccc(F)cc1)[O]C(=O)Cc1ccc(F)cc1
4. CC1=C(SCCC(=O)OCC(=O)NCCC[Te]c2ccccc2)C(=O)c2ccccc2C1=O
5. COc1ccc2[nH]c3c(C)c4ccnc(NCCCN(C)CCCNc5ccc6nnn7c8ccccc8c(=O)c5c67)c4c(C)c3c2c1
6. CCCCC1=C(Br)C(=C(Br)Br)OC1=O
7. CN(C)CCNC(=O)c1ccc(Cl)c2c(Nc3ccc(S(=O)(=O)N=C(N)N)cc3)c3ccccc3nc12

Response:
1. 18.5
2. 1.38
3. 1.97
4. 4.12
5. 1.14
6. 8.85
7. 17.8

For the 5 molecules below, give their TGI values.
1. COC(O)C12OC3CO[Si](C(C)C)(C(C)C)O[Si](C(C)C)(C(C)C)OC3C1Oc1nc(=O)ccn12 (stereo unspecified)
2. CC12OC(=O)[C@@]3(O)CCC4C(C[C@H]5O[C@]56CC=CC(=O)[C@]46C)C45OC[C@H]6C(=O)O[C@@H]1C[C@@]6(C)[C@H](C4=O)C23O5 (stereo partly specified)
3. C=C1C(=O)OC2C1CC[C@H](C)C1(O)C(O)CC(=O)[C@@]21C (stereo partly specified)
4. CCCCCCCCCCCCC[N+](C)(C)Cc1ccccc1
5. Cc1cc(C)c(CNC(=O)c2cc(-c3ccc(CN4CCOCC4)cc3)cc3c2cnn3C2CCCC2)c(=O)[nH]1

Response:
1: 21.8; 2: 4.97; 3: 33.9; 4: 2.14; 5: 50.2

---

# Tested on: SF-295 CNS
# assay.name: NCI tumour cell line growth inhibition, 48 h
endpoint.label: TGI (µM)
Answers are plain numbers, in µM.

molecule	TGI, µM
Cc1c(NC(=O)c2cc(C(N)=O)nc3cc(F)ccc23)c(C(F)(F)F)nn1Cc1ccc(C#N)cc1	54.9

Now take the following molecule into account.
Query: Please report the measured TGI for COc1cc(/C=C2\CC3C4CCC5=CC(=O)CC[C@]5(C)C4CC[C@]3(C)C2=O)ccc1OCCCn1ccnc1 (stereo not given in full)
Response: 7.41

---

# Tested on: CCRF-CEM leukemia
# assay.name: NCI tumour cell line growth inhibition, 48 h
endpoint.label: TGI (µM)
Numbers only, in µM.

compound	experimental.system	endpoint.label	number
CN(C)CCNC(=O)c1ccc(Cl)c2c(Nc3ccc(S(=O)(=O)N=C(N)N)cc3)c3ccccc3nc12	CCRF-CEM leukemia	TGI	16.9

Query: Please report the measured TGI for CC1(C)OCC(C2CCC3(C)C4=CCC5C(C)(C)C(O)CCC5(C)C4CCC23C)CC(O)C1O (stereo not given)
Response: 68.7
